- Test system: luciferase gene expression in HEK 293 cells in response to Comp. 004
- protocol_notes: Screen of riboswitch constructs with 12C6-1 variant aptamers (libraries N1-N5) against Comp. 004, luciferase in HEK 293 cells
- Format: cell-based, human
- experimental_conditions: library N5 variant aptamers (L5, X16-X21 randomized) of 12C6-1 in riboswitch constructs; in response to Comp. 004 treatment; HEK 293 cells
// reported Fold (induction of luciferase gene expression) for each item listed
Express your answer in fold, writing the number without its unit.

Illustrative cases are given below, each with its answer.
N5_7C2 (DNA CTGGGGAGTCCT; chemistry not given here) : 627.0
N5_7E1 (DNA CTGGGGAGTCCT; chemistry not given here) : 1733.0

Fill in Fold (induction of luciferase gene expression) for record N5_1F3 (CTGGGGAGTCCT; chemistry not given here)
212.8

Fill in Fold (induction of luciferase gene expression) for record N5_2G5 (CTGGGGAGTCCT; chemistry not given here)
715.9

Fill in Fold (induction of luciferase gene expression) for record N5_1E6 (CTGGGGAGTCCT; chemistry not given here)
365.1
